protocol.summary: amyloid nucleation score (Sup35N fusion, yeast selection) (log enrichment); library NNK3; higher = more nucleation; inactive = no reads after selection;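 further: zero at mode of non-aggregating sequences after 7 days selection at 30°C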
readout.kind: amyloid nucleation score

Below, 8 sequences whose answers are already recorded.
INSERT INTO assay_data (sequence_input, observed) VALUES
  ('KGRMQVEWDFGISAYCGMML', -0.431),
  ('FHDVMKGGI', 'inactive'),
  ('IFTTNCYISNFYNGWWDV', 2.91),
  ('CFTNNSIHVYSLWIKTRHFF', 0.239),
  ('RCCFWVMLFNYARGKRTWCH', 'inactive'),
  ('GNCGRSGINCHMTGTSVVRC', 'inactive'),
  ('CVRTGWIIMDSNKLD', 'inactive'),
  ('CASTDKNPFLPVNAAITYGL', 'inactive');

Give me amyloid nucleation score for each of these sequences, listed below.
1. FYMLMISSQYFVTRLAPYFP
2. TFGFRNRYFELLSVVIRHLA
3. CEKDRMNLWLTRDG
4. VQFFNDRSLVDSQIGRLLLP

Output:
1: -0.015; 2: inactive; 3: inactive; 4: inactive

Give me amyloid nucleation score for each of these sequences, listed below.
1. HFIKGGLHCVS
2. GVDCQASILHPCLFF
3. KTMVYGIQANDGWLVHGGFL

Output:
["inactive", "inactive", "inactive"]

Give me amyloid nucleation score for each of these sequences, listed below.
1. TLGVRIHCGEFNLYDHSRVK
2. AFFVVTIFVVNTSCDNVLVS

Output:
1: 0.875; 2: 1.03

====

protocol.summary: amyloid nucleation score (Sup35N fusion, yeast selection) (log enrichment); library NNK2; higher = more nucleation; inactive = no reads after selection
Would you mind telling me the reported amyloid nucleation score of each entry?
Answers are plain numbers.

Below, 5 substances whose answers are already recorded.
INSERT INTO measurements (substance, observed) VALUES
  ('VTRDFSRGIGDWLICGDILE', -1.81),
  ('NLTVCMLDSPGYQKDCGMRL', 1.54),
  ('NKVVGNTNTFLEND', 3.91),
  ('RSCMMCTT', 0.266),
  ('YCTSDG', 0.559);

Give me amyloid nucleation score for each of these substances, listed below.
1. LLANPIELRRYGPTSLKVGI
2. HRTKRGRHFIFRTCKQYYPG

Output:
-0.669
2.81

Please fill in: amyloid nucleation score reported for ISRILRKYNVIVRSSSVSRG = -1.06

====

protocol.summary: amyloid nucleation score (Sup35N fusion, yeast selection) (log enrichment); library NNK2; higher = more nucleation; inactive = no reads after selection
Hi, to clarify the labels: fulfilled covers amyloid nucleation score from -0.5 upward, not fulfilled covers anything below -0.5.

Use these answered entries as a reference point.
INSERT INTO results (substance, category) VALUES
  ('GRYLVSKTCFFYLMGNEVN', 'fulfilled'),
  ('FIYSHYWWLWLYHTATVIPH', 'not fulfilled');

Task: Quick check: does ILVYDEVTSYQDPYFS have amyloid nucleation score greater than or equal to -0.5?
Output: not fulfilled

Task: Quick check: does WHRVFKGLS have amyloid nucleation score greater than or equal to -0.5?
Output: fulfilled

Task: Quick check: does GLSMCIWCRSIQMTTLGSRY have amyloid nucleation score greater than or equal to -0.5?
Output: fulfilled

Task: Quick check: does RSGWVEPSNITVIWVKMLVQ have amyloid nucleation score greater than or equal to -0.5?
Output: fulfilled

Task: Quick check: does CMTSKVLRLDYRRMMVNIDC have amyloid nucleation score greater than or equal to -0.5?
Output: not fulfilled

Task: Quick check: does LSVCGSWDRRRFGGYDLWCT have amyloid nucleation score greater than or equal to -0.5?
Output: fulfilled

====

protocol.summary: amyloid nucleation score (Sup35N fusion, yeast selection) (log enrichment); library NNK2; higher = more nucleation; inactive = no reads after selection
readout.kind: amyloid nucleation score
Answers are plain numbers.

INSERT INTO assay_data (substance, observed) VALUES
  ('ALSSVFYIDFHFDYLYDVTL', 2.72);

Give me amyloid nucleation score for each of these substances, listed below.
1. LLWPVA
2. HQYGLNIKCFKCAILSKSGT
3. ISESLSRWART
4. SVVSGWWVIIFLYSHGVSIE
5. LIFQVMFVDCIEFRCWNMAL

Output:
1. 0.386
2. -0.562
3. 3.69
4. 0.093
5. 0.959

====

Would you mind telling me the reported amyloid nucleation score of each entry?
protocol.summary: amyloid nucleation score (Sup35N fusion, yeast selection) (log enrichment); library NNK2; higher = more nucleation; inactive = no reads after selection
One number for each entry.

INSERT INTO assay_data (substance, observed) VALUES
  ('GLLEAWEDFLGRMHGVGLVC', 4.15),
  ('TYMCQYDSLLTKTMINNRRG', -0.611),
  ('NFQVNMFVMF', 8.99),
  ('NRWLYFHS', -0.678),
  ('KRGCNQHFNSMRYLVMFLVS', -0.915);

Give me amyloid nucleation score for each of these substances, listed below.
1. GHYKFSIVFPVACLIDRFSF
2. KAGTGVVSANK
3. MLSTSDPVGFGRFCQNDWLN
4. SYRRKYSCRLESINTCAVLC
5. GFPRKSTDDLNILLNL
6. EKQKWYYLELREAAQC

Output:
[5.13, 0.644, 0.256, -0.302, -1.47, 0.284]

Give me amyloid nucleation score for each of these substances, listed below.
1. KGIAVSVVPYSPVNTGDSAV
2. HTVLPWYTIRYKWEGVGLTD
3. IPYNLIASVMLFKDLNWFAK
4. MFNVLIGVGRAGVNNPGHSL
5. SYMCKAHKRLIIGGKWINGW
6. INRCMLIPTRFVVAYSWKCV
7. WVNYFEGLMIPVSARN
8. SWKSFKRPGTRCRGQYYYMS

Output:
1. 0.632
2. 0.403
3. 6.49
4. 0.343
5. -0.031
6. -1.03
7. -1.16
8. -0.266

====

protocol.summary: amyloid nucleation score (Sup35N fusion, yeast selection) (log enrichment); library NNK2; higher = more nucleation; inactive = no reads after selection
readout.kind: amyloid nucleation score
Answers are plain numbers.

Below, 5 sequences whose answers are already recorded.
INSERT INTO results (sequence_input, observed) VALUES
  ('FAPSSIDFYRGSKNGLFTAQ', -0.302),
  ('IICAKDMFNLFIKVRQYGWS', 4.7),
  ('GSVGFVQYAVGNSMTSGIMV', -0.307),
  ('AAFQSMENCCAFCSVRRQES', -0.406),
  ('ISCNKIIDIKMWGWVCAIA', 8.73);

Give me amyloid nucleation score for each of these sequences, listed below.
1. TVGVCGTLPGSASRHVYFRE
2. LRTVDVAR

Output:
[0.286, -0.654]

Give me amyloid nucleation score for each of these sequences, listed below.
1. MKFQPETVCYFRGYWLDRQY
2. DTWEELFKNRDNPRRKCVGL
3. NRADGDKFSSSPSPTWKYME
4. DCLLGNSSPAV

Output:
1. -0.251
2. 1.32
3. -0.081
4. -0.594

====

protocol.summary: amyloid nucleation score (Sup35N fusion, yeast selection) (log enrichment); library NNK2; higher = more nucleation; inactive = no reads after selection
Hi, to clarify the labels: Y covers amyloid nucleation score from 0.8 upward, N covers anything below 0.8.

Task: Quick check: does GKIKTVFWSKDLRFVFIMCV have amyloid nucleation score greater than or equal to 0.8?
Output: N

Task: Quick check: does KRMSPWAVFGC have amyloid nucleation score greater than or equal to 0.8?
Output: Y

Task: Quick check: does FGVLYLDFCSIA have amyloid nucleation score greater than or equal to 0.8?
Output: Y

====

protocol.summary: amyloid nucleation score (Sup35N fusion, yeast selection) (log enrichment); library NNK3; higher = more nucleation; inactive = no reads after selection
readout.kind: amyloid nucleation score

INSERT INTO measurements (substance, observed) VALUES
  ('VDRDSWSVPFCALQKHRMQK', 'inactive'),
  ('LLPKVLLP', 'inactive'),
  ('DKVTHQCSISMSWAWRVHVV', 'inactive'),
  ('ETDVHSYFVSLYSYPFAVEP', 'inactive'),
  ('VNMMRDVVIDKVLFLSSHVA', 1.48);

Give me amyloid nucleation score for each of these substances, listed below.
1. YSESMRGNQ
2. NPDLVFWFKYLWYDGSCQ
3. TVGGFAWLDNSLSDRMFDTS
4. GHMTVSTWWNIVYMAKGYRV
5. YRGWLNPEYHRLVN
6. YPTWKGIFNRWAEYCIRLPV
7. KYWLMVWRFNYCMTYNGGLE
8. FFSSDDMWRYWMFSYSDNSI

Output:
1. inactive
2. inactive
3. inactive
4. -0.425
5. 0.008
6. -0.266
7. inactive
8. inactive
